Assay: Human HepG2 cell viability assay in 384 well format
Type: toxicity, cell-based
Set-up: dose 125 nL, time 70.5 hour; concentration not given beside the values
Conditions: HepG2 cells, read-out: Inhibition
Answer each item with its documented cytotoxicity at 70.5 h.

Lab book: cytotoxicity at 70.5 h of CC(CC(=O)Nc1ncn(CC(=O)NCc2ccccc2)n1)C1CC1 (configuration not stated) noted as -14.7%

Lab book: cytotoxicity at 70.5 h of O=S1(=O)CCC(CNS(=O)(=O)N2CCc3ccccc3C2)C1 (configuration not stated) noted as 1.82%

Lab book: cytotoxicity at 70.5 h of `Cc1oc(C(=O)O)cc1S(=O)(=O)Nc1cc(F)ccc1F` noted as 5.73%

Lab book: cytotoxicity at 70.5 h of CCCc1noc(C2CCCCN2C(=O)C2CCCC2)n1 (configuration not stated) noted as 32.2%

Lab book: cytotoxicity at 70.5 h of COc1ccc(C(=O)NCC(c2cccn2C)N2CCN(C)CC2)cc1 (configuration not stated) noted as -4.93%

Lab book: cytotoxicity at 70.5 h of `O=C(c1ccccc1)N1CCC2(CC1)CNc1c(F)cccc12` noted as -7.65%

Lab book: cytotoxicity at 70.5 h of `COc1cc(N2C[C@@H]3COC[C@]3(COCc3ccccn3)C2)ncn1` noted as -4.79%

Lab book: cytotoxicity at 70.5 h of `Cc1cc(C(=O)O)cc(S(=O)(=O)Nc2ccc3c(c2)OCCO3)c1C` noted as -3.8%

Lab book: cytotoxicity at 70.5 h of COCCn1cc(NC(=O)NCC(c2cccc(F)c2)N(C)C)cn1 (configuration not stated) noted as -2.22%

Lab book: cytotoxicity at 70.5 h of `Cc1cc(CN2C[C@H]3CCC[C@@]3(COCC3CCOCC3)C2)no1` noted as 0.596%

Lab book: cytotoxicity at 70.5 h of `CC(C)CN1Cc2cccc(NC(=O)Cc3ccon3)c2C1` noted as -4.05%

Lab book: cytotoxicity at 70.5 h of `CCc1cc(C(F)(F)F)c2c(C3CCN(C(=O)COC)CC3)noc2n1` noted as -6.22%

Lab book: cytotoxicity at 70.5 h of `CCNC(=O)N(C)CCCc1n[nH]c(N)c1C#N` noted as 17.3%

Lab book: cytotoxicity at 70.5 h of CC1c2ncc(COc3cccnc3)n2CCN1Cc1ccco1 (configuration not stated) noted as -12.4%

Lab book: cytotoxicity at 70.5 h of `O=C(c1ccncn1)N1C[C@@H]2CN(Cc3cccnc3)CCO[C@@H]2C1` noted as -12.7%

Lab book: cytotoxicity at 70.5 h of `O=C(N[C@@H]1CN(Cc2ccc3c(c2)OCO3)[C@@H]2CCCO[C@@H]21)C1CC1` noted as 8.84%

Lab book: cytotoxicity at 70.5 h of `Cc1cc(N2CCc3c(ncn3C)C2)nc(N)n1` noted as -0.513%

Lab book: cytotoxicity at 70.5 h of Cc1ccc(S(=O)(=O)N2CCC3(CC(C(=O)NCC(C)C)=NO3)C2)cc1 (configuration not stated) noted as 7.95%

Lab book: cytotoxicity at 70.5 h of `C[C@]1(O)CN(CCC(N)=O)CC[C@@H]1Oc1cccc(F)c1` noted as -0.798%

Lab book: cytotoxicity at 70.5 h of CCc1nc(CN2CCCN(C(=O)C(C)COC)CC2)cs1 (configuration not stated) noted as -2.68%

Lab book: cytotoxicity at 70.5 h of CC(Nc1ccn(CCS(C)(=O)=O)n1)c1ccc(C#N)cc1 (configuration not stated) noted as -1.96%

Lab book: cytotoxicity at 70.5 h of `Cn1c(C2CC2)nc2c1CCN(Cc1nc3ccccc3s1)C2` noted as 23.2%

Lab book: cytotoxicity at 70.5 h of `CNc1ncc(CN(C)c2nc(C)c3ccc(S(C)(=O)=O)cc3n2)cn1` noted as -6.87%

Lab book: cytotoxicity at 70.5 h of Cn1cncc1CN1CCOC(Cc2ccccc2)C1 (configuration not stated) noted as -8.78%

Lab book: cytotoxicity at 70.5 h of `O=C(Cc1noc(C(=O)NCCO)n1)Nc1cccc(C(F)(F)F)c1` noted as -22.4%

Lab book: cytotoxicity at 70.5 h of Fc1ccc(-c2nc(CNC3CCc4ncnn4C3)co2)cc1 (configuration not stated) noted as -4.87%

Lab book: cytotoxicity at 70.5 h of `CCc1ccccc1CNC(=O)CNC(=O)C(C)(C)C` noted as -6.65%

Lab book: cytotoxicity at 70.5 h of CCN(Cc1ccncc1)CC1(O)CCN(C(=O)c2cnn(C)c2)C1 (configuration not stated) noted as -4.91%

Lab book: cytotoxicity at 70.5 h of `CCn1cc(C(=O)Nc2ccc(C)cc2C(=O)OC)cn1` noted as 16%

Lab book: cytotoxicity at 70.5 h of `Cc1nc2c(c(=O)[nH]1)CCN(Cc1ccc3c(c1)CCCN3C)C2` noted as 0.602%

Lab book: cytotoxicity at 70.5 h of `Cc1ccc2cccc(C(=O)NCCOCC3CC3)c2n1` noted as -0.418%

Lab book: cytotoxicity at 70.5 h of `Cc1ccc2nc3n(c2c1)[C@@H](CNC(=O)c1ccncc1)COC3` noted as 4.47%

Lab book: cytotoxicity at 70.5 h of `CN(CC1CC1)C(=O)Cc1csc(-c2ncccn2)n1` noted as 0.625%

Lab book: cytotoxicity at 70.5 h of O=C(CC1OCCc2ccsc21)NCC1CC1 (configuration not stated) noted as -1.8%

Lab book: cytotoxicity at 70.5 h of O=C(C1CN(CC2CCOCC2)CC12CCOCC2)N1CCOCC1 (configuration not stated) noted as -2.61%

Lab book: cytotoxicity at 70.5 h of `CCCN(C(=O)COC)c1nc2c(s1)CCc1c-2cnn1C` noted as 3.43%

Lab book: cytotoxicity at 70.5 h of Cc1ccc(-c2nc(C(=O)N3CCCCC3CNS(C)(=O)=O)cs2)cc1 (configuration not stated) noted as 11%

Lab book: cytotoxicity at 70.5 h of `Cc1cnn(CCC(=O)N2CCCN(c3cccnn3)CC2)c1` noted as -2.44%

Lab book: cytotoxicity at 70.5 h of `O=c1cc(N2CCCC2)cnn1CCc1cccc(F)c1` noted as 34.6%

Lab book: cytotoxicity at 70.5 h of `O=C(c1cccc(CNS(=O)(=O)c2ccccc2F)c1)N1CCCC1` noted as -16.2%

Lab book: cytotoxicity at 70.5 h of `CN1CCN(C[C@@H]2CN(C3Cc4ccccc4C3)C[C@@H]2CO)CC1` noted as 22.1%

Lab book: cytotoxicity at 70.5 h of `COc1ccnc(N2CCN(C(=O)c3ccn(C)c(=O)c3)CC2)n1` noted as -1.1%

Lab book: cytotoxicity at 70.5 h of `CC(C)CNC(=O)c1cn(C(C)C)cc2c(=O)[nH]nc1-2` noted as -7.94%

Lab book: cytotoxicity at 70.5 h of `CCc1cccc2cc(CNCCCN3CCOCC3)c(=O)[nH]c12` noted as 0.0251%

Lab book: cytotoxicity at 70.5 h of Cc1nnc(C(C)N2CCN(Cc3ccc(C#N)cc3)CC2)o1 (configuration not stated) noted as -6.02%

Lab book: cytotoxicity at 70.5 h of CC(Nc1ccc(CCN2CCOCC2)cc1)C(=O)N(C)CCC#N (configuration not stated) noted as 9.3%

Lab book: cytotoxicity at 70.5 h of `Cn1c(SCC(N)=O)nnc1-c1csc2c1CCCC2` noted as -9.11%

src = ChEMBL document CHEMBL3507680
